Item-by-item account of MIC
Tested on: up to 32 different microorganisms
run_description: in vitro antibacterial activity (MIC), agar dilution on Brain Heart Infusion (BHI) agar with Steers replicator
Format: cell-based
run_conditions: organism code CC; unit assumed
recorded_endpoint: MIC

compound="CCC1OC(=O)C(C)C(=O)C(C)C(OC2OC(C)CC(N(C)C)C2O)C(C)(OCC=Cc2ccc(C)c3ccccc23)CC(C)C(=O)C(C)C2NC(=O)OC12C (stereo not drawn)" target_of_assay="up to 32 different microorganisms" recorded_endpoint=MIC result="50 µg/mL"
compound=CC[C@H]1OC(=O)[C@H](C)C(=O)[C@H](C)[C@@H](O[C@@H]2O[C@H](C)C[C@H](N(C)C)[C@H]2O)[C@@](C)(OCC=NOCc2ccc3ccccc3n2)C[C@@H](C)C(=O)[C@H](C)[C@H]2NC(=O)O[C@@]21C target_of_assay="up to 32 different microorganisms" recorded_endpoint=MIC result="> 100 µg/mL"
compound="CCC1OC(=O)C(C)C(=O)C(C)C(OC2OC(C)CC(N(C)C)C2O)C(C)(OCC=Cc2cnc3ccc(C(=O)OC)cc3c2)CC(C)C(=O)C(C)C2NC(=O)OC12C (stereo not drawn)" target_of_assay="up to 32 different microorganisms" recorded_endpoint=MIC result="> 100 µg/mL"

---

System: up to 32 different microorganisms
run_description: in vitro antibacterial activity (MIC), agar dilution on Brain Heart Infusion (BHI) agar with Steers replicator
Type: cell-based
run_conditions: Staphylococcus aureus CMX 553 (code FF); unit assumed
Quick reference for MIC among some molecules
recorded_endpoint: MIC (µg/mL)

molecule="CC[C@H]1OC(=O)[C@H](C)C(=O)[C@H](C)[C@@H](O[C@@H]2O[C@H](C)C[C@H](N(C)C)[C@H]2O)[C@@](C)(OCC#N)C[C@@H](C)C(=O)[C@H](C)[C@@H](O)[C@]1(C)O [Example 7]" recorded_endpoint=MIC quantitative_result=3.1
molecule="CC[C@H]1OC(=O)[C@H](C)C(=O)[C@H](C)[C@@H](O[C@@H]2O[C@H](C)C[C@H](N(C)C)[C@H]2O)[C@@](C)(OCc2ccc3ccccc3c2)C[C@@H](C)C(=O)[C@H](C)[C@H]2NC(=O)O[C@@]21C [Example 176]" recorded_endpoint=MIC quantitative_result=0.78

---

Listed below: MIC values for each entry.
System: up to 32 different microorganisms
run_description: in vitro antibacterial activity (MIC), agar dilution on Brain Heart Infusion (BHI) agar with Steers replicator
Type: cell-based
run_conditions: organism code KK; unit assumed
recorded_endpoint: MIC (µg/mL)

compound=CC[C@H]1OC(=O)[C@H](C)C(=O)[C@H](C)[C@@H](O[C@@H]2O[C@H](C)C[C@H](N(C)C)[C@H]2O)[C@@](C)(OCC=NOCc2ccc3ncccc3c2)C[C@@H](C)C(=O)[C@H](C)[C@H]2NC(=O)O[C@@]21C recorded_endpoint=MIC relation_operator== quantitative_result=0.05
compound="CCC1OC(=O)C(C)C(=O)C(C)C(OC2OC(C)CC(N(C)C)C2O)C(C)(OCC=Cc2ccc3cccnc3c2)CC(C)C(=O)C(C)C2NC(=O)OC12C (stereo not shown)" recorded_endpoint=MIC relation_operator== quantitative_result=0.01
compound=CC[C@H]1OC(=O)[C@H](C)C(=O)[C@H](C)[C@@H](O[C@@H]2O[C@H](C)C[C@H](N(C)C)[C@H]2O)[C@@](C)(OCCNCc2cnc3ccccc3c2)C[C@@H](C)C(=O)[C@H](C)[C@H]2NC(=O)O[C@@]21C recorded_endpoint=MIC relation_operator== quantitative_result=0.02
compound=CC[C@H]1OC(=O)[C@H](C)C(=O)[C@H](C)[C@@H](O[C@@H]2O[C@H](C)C[C@H](N(C)C)[C@H]2O)[C@@](C)(OCC=NOc2ccccc2)C[C@@H](C)C(=O)[C@H](C)[C@H]2NC(=O)O[C@@]21C recorded_endpoint=MIC relation_operator=≤ quantitative_result=0.005
